- ASSAY PROCEDURE: Expert taster flavor and aroma levels (threshold, recognition, fatty flavor) in regular or soluble coffee brew
- MEASUREMENT CONDITIONS: about 1 to 1.5% coffee solids brew
METRIC: Threshold Level (ppb)
Your answer is read as ppb, so omit the unit and give the number.

CCCCCC/C=C/C(OCC)OCC [trans-2-nonene diethyl acetal]	0.02
CCCCCC/C=C\COC(C)=O [cis-2-nonenyl acetate]	50
CCCCCC/C=C/COC(C)=O [trans-2-nonenylacetate, Trans-2-nonenyl acetate]	100
CCCCCC/C=C/C1OCCO1 [1-Octenyl-1-dioxolane, trans-1-octenyl-2-dioxolane]	0.3

--- query ---
Data request, read-out Threshold Level, for CCCCCC/C=C/C(OC)OC [trans-2-nonene dimethyl Acetal, trans-2-nonene dimethyl acetal]
0.03
